B1: HESX1 (parent)
chain: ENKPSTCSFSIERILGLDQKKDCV

Variants of: B1
Experiment: protein stability index of a GFP-peptide fusion (GPS, HEK-293T) (PSI 1-6); higher = more stable;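 further: lentivirally expressed fusions sorted by FACS into six bins by GFP to DsRed ratio, PSI derived from sequencing read proportions per bin multiplied by bin number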
Settings: c terminus: a fixed tail appended
Listed here are variants together with their documented protein stability index.
// no unit string in output, number only

>>> result_value("ENKPSTCDFSIERILGLDQKKDCV [S8D]")
3.88
>>> result_value("ENKPSTCSFSIERHLGLDQKKDCV [I14H]")
4.1
>>> result_value("ENKPSTCSFSIERILLLDQKKDCV [G16L]")
2.43
>>> result_value("ENKPSTCSFSIERILGLDFKKDCV [Q19F]")
2.12
>>> result_value("ENKPSTCSFSIERILFLDQKKDCV [G16F]")
2.49

Could you now look at the following variant, please?
*Q* Return reported protein stability index. Input variant: ENKPSTCSFSIERILGLDQKKDCM [V24M]
*A* 2.89
